Below, each entry is listed with its recorded growth.
# Tested on: OVCAR-4 ovarian
# assay.name: NCI-60 one-dose screen, 48 h (100 = growth as untreated, 0 = no growth, -100 = all killed)
# condition: 10 µM unless noted
Compounds without any hit were thinned out: in the full panel of roughly 83,000, 20% have a hit.

# compound, assay.target, u, growth
records = [
    ("O=c1c2cc(Cl)ccc2oc2ccc(OCCCCCN3CCCCC3)cc12", "OVCAR-4 ovarian", "%", 80.6),
    ("COC(=O)c1ccc2c(c1)nc(-c1cc3ccccc3[nH]c1=O)n2-c1cc(C(C)(C)C)[nH]n1", "OVCAR-4 ovarian", "%", 86.7),
    ("COc1ccc(/C=C/c2nc(NCCCN(C)C)c3ccccc3n2)cc1", "OVCAR-4 ovarian", "%", 62.9),
    ("CCCCCCCC/C=C/CCCCCCCC1=NC(C)(C)CN1c1ccccc1", "OVCAR-4 ovarian", "%", 80.2),
    ("OC(COCc1ccccc1)COCc1ccccc1", "OVCAR-4 ovarian", "%", 107),
    ("COc1ccc(/C(C)=N/NC(=O)c2ccc(S(C)(=O)=O)cc2)cc1OC", "OVCAR-4 ovarian", "%", 97.7),
    ("C=C1C(=O)O[C@H]2[C@H]1CC/C(COC(=O)NCc1ccc(Cn3c(=O)sn(CCCl)c3=O)cc1)=C\\CC[C@@]1(C)O[C@@H]21", "OVCAR-4 ovarian", "%", 60.6),
    ("C=C(C)[C@@H]1CC[C@]2(C(=O)NS(=O)(=O)c3ccccc3)CC[C@]3(C)[C@H](CC[C@@H]4[C@@]5(C)CC[C@H](OC(=O)NS(=O)(=O)c6ccccc6)C(C)(C)[C@@H]5CC[C@]43C)[C@@H]12", "OVCAR-4 ovarian", "%", 38.1),
    ("Cc1cc(-c2ccc(N=Nc3c(S(=O)(=O)O)cc4cc(S(=O)(=O)O)cc(O)c4c3O)c(C)c2)ccc1N=Nc1c(S(=O)(=O)O)cc2cc(S(=O)(=O)O)cc(O)c2c1O", "OVCAR-4 ovarian", "%", 103),
    ("O=C(/C=C/c1ccccc1)c1c[nH]c2ccccc2c1=O", "OVCAR-4 ovarian", "%", 42.1),
    ("CNC1=C([N+](=O)[O-])C(c2ccccc2O)C(C#N)=C(c2cccs2)O1 (stereo not given)", "OVCAR-4 ovarian", "%", 82.4),
    ("CN(C)CCCN1c2ccccc2CCc2ccccc21", "OVCAR-4 ovarian", "%", 68.7),
    ("Cc1cc(-c2ccccc2)on1", "OVCAR-4 ovarian", "%", 102),
    ("O=c1c2cc(Cl)ccc2oc2ccc(OCCCCCN3CCCCCC3)cc12", "OVCAR-4 ovarian", "%", 91.8),
    ("CCCCCCCOc1cccc(/C=C2\\N=C3SCCCN3C2=O)c1", "OVCAR-4 ovarian", "%", 85.6),
    ("COc1ccccc1CNCCCN1C(=O)c2ccc3c4c(ccc(c24)C1=O)C(=O)N(CCCOCCCCOCCCN)C3=O", "OVCAR-4 ovarian", "%", -97.1),
    ("COc1ccc(-c2cc(-c3ccc(OC)cc3)c3sc(=O)[nH]c3n2)cc1", "OVCAR-4 ovarian", "%", 95.6),
    ("C=C(C)[C@@H]1CC[C@]2(C(=O)NC(COC(=O)C(Cl)Cl)(COC(=O)C(Cl)Cl)COC(=O)C(Cl)Cl)CC[C@]3(C)[C@H](CC[C@@H]4[C@@]5(C)CC[C@H](OC(C)=O)C(C)(C)[C@@H]5CC[C@]43C)[C@@H]12", "OVCAR-4 ovarian", "%", 54.5),
    ("O=C1CCCN1C(O)CCN(Cc1ccccc1)Cc1ccc(Cl)cc1 (stereo not given)", "OVCAR-4 ovarian", "%", 103),
    ("O=C(c1ccccc1)C(CCc1ccccn1)CCc1ccccn1", "OVCAR-4 ovarian", "%", 111),
]
